B1: TRIM39 (parent)
chain: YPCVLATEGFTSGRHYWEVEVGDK

Variants of: B1
Assay: protein stability index of a GFP-peptide fusion (GPS, HEK-293T) (PSI 1-6); higher = more stable;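 also: lentivirally expressed fusions sorted by FACS into six bins by GFP to DsRed ratio, PSI derived from sequencing read proportions per bin multiplied by bin number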
Conditions: c terminus: a fixed tail appended
Use Y when the recorded protein stability index is no lower than 2; use N when it is lower.

# VAR, DISCRETE LABEL
rows = [
    ("E20A", "Y"),
    ("W17Y", "Y"),
    ("T11W", "Y"),
    ("L5P", "N"),
    ("V21K", "Y"),
    ("V4I", "N"),
    ("S12F", "N"),
    ("G9K", "N"),
    ("V19Y", "Y"),
    ("Y16N", "Y"),
    ("E20G", "Y"),
    ("R14I", "Y"),
    ("V21Q", "N"),
    ("D23R", "N"),
    ("H15I", "N"),
    ("T7Q", "N"),
    ("G13F", "N"),
    ("Y1I", "Y"),
    ("T11R", "Y"),
    ("A6D", "Y"),
    ("G13V", "Y"),
    ("F10W", "N"),
    ("T11S", "N"),
    ("C3E", "Y"),
    ("G22D", "N"),
    ("H15A", "Y"),
    ("E18A", "Y"),
    ("Y16I", "Y"),
    ("W17L", "Y"),
    ("Y16P", "N"),
    ("R14P", "Y"),
    ("S12T", "N"),
    ("L5C", "N"),
    ("T11V", "N"),
    ("P2S", "N"),
    ("V4Y", "Y"),
    ("E18M", "N"),
    ("E8Q", "N"),
    ("T7S", "N"),
]
